# System: Vibrio
# procedure-summary: Antibacterial activity against Vibrio species after 18 hrs
# Assay type: functional
quantity-name: MIC

Observe how each entry below is paired with its result.
compound=CC(=O)Nc1ccc(S(=O)(=O)NNC(=O)c2cccnc2Nc2ccc(F)cc2)cc1 experimental_result="22 µg/mL"
compound=O=C(NNS(=O)(=O)c1ccc(F)cc1)c1cccnc1Nc1ccc(Cl)cc1Cl experimental_result="20 µg/mL"
compound=COc1ccc(Nc2ncccc2C(=O)NNS(=O)(=O)c2ccc(C)cc2)cc1 experimental_result="19 µg/mL"
compound=CC(=O)Nc1ccc(S(=O)(=O)NNC(=O)c2cccnc2Nc2ccc(Cl)cc2)cc1 experimental_result="18 µg/mL"
compound=O=C(NNS(=O)(=O)c1ccc(Cl)cc1Cl)c1cccnc1Nc1ccc(Cl)cc1 experimental_result="14 µg/mL"

Here's the next entry for you.
QUERY: Look up and state reported MIC for Nc1ccc(S(=O)(=O)Nc2ncccn2)cc1 [SULFADIAZINE]
RESULT: 13 µg/mL

* * *

# Tested on: Vibrio
# procedure-summary: Antibacterial activity against Vibrio species after 18 hrs
# Assay type: functional
MIC overview
Just the number in µg/mL, nothing appended.

Observe how each entry below is paired with its result.
test_smiles=Cc1ccc(S(=O)(=O)NNC(=O)c2cccnc2Nc2ccc(Cl)cc2)cc1 tested_target=Vibrio experimental_result=23
test_smiles=O=C(NNS(=O)(=O)c1ccccc1)c1cccnc1Nc1ccccc1 tested_target=Vibrio experimental_result=20
test_smiles=O=C(NNS(=O)(=O)c1ccc(F)cc1)c1cccnc1Nc1ccc(F)cc1 tested_target=Vibrio experimental_result=22

Here's the next entry for you.
QUERY: Look up and state reported MIC for O=C(NNS(=O)(=O)c1ccc(Cl)cc1)c1cccnc1Nc1ccc(F)cc1
RESULT: 21
